Entry source: ChEMBL document CHEMBL1201862

system: DMS-273; experiment: NCI tumour cell line growth inhibition, 48 h
Calls of active or inactive are those of the source. Rule as the data show it: active = GI50 up to about 1.1 µM and inactive = higher.
READOUT LABEL: GI50

Observe how each entry below is paired with its result.
[[record]]
compound = "O=C1/C(=C/c2ccccc2)CN(C(=O)OCc2ccccc2)C/C1=C\\c1ccccc1"
test_result = "5 µM (inactive)"

[[record]]
compound = "CCOC(=O)NC(=O)c1cn(CCCCCCOC(=O)NCCCCCCNC(=O)OCCCCCCn2cc(C(=O)NC(=O)OCC)c(=O)[nH]c2=O)c(=O)[nH]c1=O"
test_result = "> 100 µM (inactive)"


Lookup: Entry O=S(=O)(c1ccccc1)C1CN2OC1(S(=O)(=O)c1ccccc1)CC2c1ccc(Br)cc1 (stereo not drawn) : reported GI50 = ?
Found: > 100 µM (inactive)
